- measured.on: T1, canine OX40L, full length membrane form, expressed on HEK293 cells (canine)
- T1 chain: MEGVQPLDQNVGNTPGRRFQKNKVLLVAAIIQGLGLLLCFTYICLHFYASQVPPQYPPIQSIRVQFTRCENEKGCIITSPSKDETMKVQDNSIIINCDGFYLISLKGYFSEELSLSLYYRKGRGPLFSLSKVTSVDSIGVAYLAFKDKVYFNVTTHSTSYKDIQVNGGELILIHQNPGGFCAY
- method.summary: cell-based or functional assay
Classes based on % Signal Inhibition Average: low: < 40%; middle: ≥ 40% and < 70%; high: ≥ 70%

Lab note: which band did PMX033 (antibody, V domains shown, also called PMX33) VH: EVQLVESGGDLVKPGGSLRLSCVASGFTFSSYHMSWVRQAPGKGLQWVAYITSGGRTTSYADAVKGRFTISRDNAKNTLYLQMKSLRAEDTAVYYCASDLVLVLGGAEYWGQGTLVTVSS VL: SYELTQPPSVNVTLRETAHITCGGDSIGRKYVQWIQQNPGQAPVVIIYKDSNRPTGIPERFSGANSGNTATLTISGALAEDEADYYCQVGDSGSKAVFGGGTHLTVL land in? middle

Lab note: which band did PMX088 (antibody, V domains shown) VH: EVQLVESGGDLVKPGGSLRLSCVASGFTFNTYHMNWVRQAPGKGLHWVAFINSGGTGTGYSDTVKGRFTISRDYAKNTLYLQMNSLRAEDTAVYYCVSGSIWTHFDYWGQGTLVTVSS VL: SYVLTQLPSVSMTLRQTAHITCGGDIIGSKSVYWYQQKLGQAPVLIIYRDTNRPTGIPERFSGASSGNTATLTISGALAEDEADYYCQVWDSNTQAVFGGGTHLTVL land in? low

Lab note: which band did PMX028 (antibody, V domains shown, also called PMX28) VH: EVQMVESGGDLVKPGGSLRLSCVASGFTFSDYHMSWVRQAPGKGLQWVAYITSGGSSTSYADAVKGRFTISRDNAKNTLYLQMNSLRAEDTAVYYCASDLVLVVGGGVYWGQGTLVTVSS VL: SYELTQPPSVNVTLRETAHITCGGDSIGSKYVQWIQQNPGQAPVVIIYKDSNRPTGIPERFSGANSGNTATLTISGALAEDEADYYCQVGDSGTKAVFGEGTQLTVL land in? middle

Lab note: which band did PMX105 (antibody, V domains shown) VH: EVQLVESGGDLVKPGGSLRLSCVASGFTFNTYHMNWVRQAPGKGLHWVAFINSGGSGTSYEDTVQGRFTISRDYAKNTLYLQMNSLRAEDTAVYYCACGSIWTHFDYWGQGTLVTVSS VL: SYVLTQLPSVSVTLRQTAHITCGGDIIGSKSVYWYQQKLGQAPVMIIYRDNNRPTGIPERFSGASSGNTATLTISGSLAEDEADYYCQVWDSRTQALFGGGTHLTVL land in? high

Lab note: which band did PMX058 (antibody, V domains shown, also called PMX58) VH: EVQLVESGGDLVKPEGSLRLSCVVSDFTFGSYGMSWVRQAPGKGLQWVAYISSDGRSTSYTDAVKGRFTISRDNAKNTLHLQMNSLRTEDTAVYYCAKLGRGFAFGYWGQGTLVTVSS VL: SYVLTQLPSKNVTLKQPAHITCGGDNIGSKSVHWYQQKLGQAPVLIIYYDSNRPTGIPERFSGANSGNTATLTISGALAEDEADYYCQVWDSSASVFGGGTHLTVL land in? low

Lab note: which band did PMX154 (antibody, V domains shown) VH: EVQLVESGGDLVKPEGSLRLSCVVSGFTFSGFDMSWVRQAPGKGLQWVAYISTDGRSTGYTDAVKGRFTISRDNVKNTLYLQMNSLRTEDTAVYYCAKETRHWGFDYWGQGTLVIVSS VL: SYVLTQLSSVSVSLRQTAHITCGGDSIGRKNVYWHQQKLGRAPILIIYDDSSRPSGIPERFSGANSGNTATLTISGALAEDEAAYYCQVWDSSTSVFGGGTHLTVL land in? middle

Lab note: which band did PMX054 (antibody, V domains shown, also called PMX54) VH: EVHLVESGGDLVKPEGSLRLSCVVSGFTFSSYDMSWVRQAPGKGLQWVAYISSDGRSTGYTDAVKGRFTISRDNAKKTLYLQMNSLRSEDTAVYYCAKETPRWGFDYWGQGTLVTVSS VL: SYVLTQLPSVSVTLRQTARITCGGASIGSKNVYWHQQKLGQAPLLIIYDDSSRPSGIPERFSGANSGNTATLTISGALAEDEADYYCQVWDSSTSVFGGGTHLTVL land in? low

Lab note: which band did PMX037 (antibody, V domains shown, also called PMX37) VH: EVQLLESGGDLVKPGGSLRLSCVASGFTFSNYEMYWVRQAPGKGLEWVARFYESGSTTYSAEAVPGRFTISRDNAKNMAYLQMNSLRAEDTAVYYCASASSSSWRFDYWGQGTLVTVSS VL: SYVLTQLPSVSVTLGQTARITCGGDSIGSKNVYWFQQKLGQAPVLIIYDDRSRPSGIPERFSGANSGNTATLTISGALAEDEADYYCQVWDSSTGVFGGGTHLTVL land in? high

Lab note: which band did PMX294 (antibody, V domains shown) VH: EVQLVESGGDLVKPEGSLRLSCAVSGFTFSSNDMSWVRQAPGKGLQWVAYITYDGRSTSYTDIVKGRFTVSRDNAKNTLYLQMNSLRSEDAAVYYCAKAQRGWFFDYWGQGTLVTVSS VL: SYVLTQLPSVSVTLRQTARITCGGDSIGSKNVYWYQQKLGQAPVLIIYDDDSRPSGIPERISGANSGNTATLTISGALAEDEADYYCQVWDSSTGVFGGGTHLTVL land in? high

Source listed as patent US20250340659A1.
